Assay: Plasma concentration in healthy human subjects (6 subjects) at 600 mg, po administered as single enteric-coated compound dose measured after 10 hrs by GLC method
Type: ADME, organism-based
Measured metric: concentration at 10 h (ng/mL)
Lab book: enter the figure in ng/mL, no units written.

input: Fill in the blank: the reported concentration at 10 h of CCCC(CCC)C(=O)[O-].[Na+] [VALPROATE SODIUM] is ____.
output: 38400

###

Test: Plasma protein binding in healthy human subjects (6 subjects) measured under steady state conditions by equilibrium dialysis method
Format: ADME, cell-free
Conditions: read-out: PPB (converted)
Measured metric: fraction unbound
Form field (numeric): enter value without unit.

input: Fill in the blank: the reported fraction unbound of CCCC(CCC)C(=O)[O-].[Na+] [VALPROATE SODIUM] is ____.
output: 0.067

###

Test: Plasma concentration in healthy human subjects (6 subjects) at 600 mg, po administered as single enteric-coated compound dose measured after 24 hrs by GLC method
Format: ADME, organism-based
Measured metric: concentration at 24 h (ng/mL)
Lab book: enter the figure in ng/mL, no units written.

input: Fill in the blank: the reported concentration at 24 h of CCCC(CCC)C(=O)[O-].[Na+] [VALPROATE SODIUM] is ____.
output: 17600

###

Assay: AUC in healthy human subjects (6 subjects) at 600 mg, po administered as single enteric-coated compound dose measured by GLC method
Format: ADME, organism-based
Details: in vivo
Measured metric: AUC (µg·h/mL)
Lab book: enter the figure in µg·h/mL, no units written.

input: Fill in the blank: the reported AUC of CCCC(CCC)C(=O)[O-].[Na+] [VALPROATE SODIUM] is ____.
output: 1210

###

Experiment: Plasma protein binding in healthy human subjects (6 subjects) assessed as unbound fraction level measured under steady state conditions by equilibrium dialysis method
Type: ADME, cell-free
Measured metric: fraction unbound

input: Fill in the blank: the reported fraction unbound of CCCC(CCC)C(=O)[O-].[Na+] [VALPROATE SODIUM] is ____.
output: 0.067

###

Assay: Plasma concentration in healthy human subjects (6 subjects) at 600 mg, po administered as single enteric-coated compound dose measured after 2 hrs by GLC method
Assay type: ADME, organism-based
Measured metric: concentration at 2 h (ng/mL)
Lab book: enter the figure in ng/mL, no units written.

input: Fill in the blank: the reported concentration at 2 h of CCCC(CCC)C(=O)[O-].[Na+] [VALPROATE SODIUM] is ____.
output: 10300

###

Assay: Plasma concentration in healthy human subjects (6 subjects) at 600 mg, po administered as single enteric-coated compound dose measured after 30 hrs by GLC method
Assay type: ADME, organism-based
Measured metric: concentration at 30 h (ng/mL)
Lab book: enter the figure in ng/mL, no units written.

input: Fill in the blank: the reported concentration at 30 h of CCCC(CCC)C(=O)[O-].[Na+] [VALPROATE SODIUM] is ____.
output: 14000

###

Assay: Tmax in healthy human subjects (6 subjects) at 600 mg, po administered as single enteric-coated compound dose measured by GLC method
Assay type: ADME, organism-based
Conditions: in vivo
Measured metric: Tmax (h)
Lab book: enter the figure in h, no units written.

input: Fill in the blank: the reported Tmax of CCCC(CCC)C(=O)[O-].[Na+] [VALPROATE SODIUM] is ____.
output: 3.7

###

Assay: Plasma concentration in healthy human subjects (6 subjects) at 600 mg, po administered as single enteric-coated compound dose measured after 48 hrs by GLC method
Format: ADME, organism-based
Measured metric: concentration at 48 h
Phrase the answer as number then unit, nothing more needed.

input: Fill in the blank: the reported concentration at 48 h of CCCC(CCC)C(=O)[O-].[Na+] [VALPROATE SODIUM] is ____.
output: 6500 ng/mL
